Provenance of the data: patent US20120115852A1

- experimental.system: recombinant autotaxin (Homo sapiens)
- Construct: made in house; host or cells: Hi5 insect cells (baculovirus)
- experimental.protocol: Autotaxin test (enzyme test), Amplex Red fluorescence with LPC substrate
- Assay type: biochemical
- run.parameters: 10 μM compound; autotaxin inhibition (enzyme test); read-out: % Control at 10 μM
remaining activity at 10 µM: recorded values
attribute.measured: remaining activity at 10 µM (%)

molecule="N[C@@H](CO)C(=O)N1CCN2C(=O)c3cc(-c4ccc(Cl)cc4F)ccc3NC(=O)[C@H]2C1 [Compound A122]" attribute_measured="remaining activity at 10 µM" test_result=69
molecule="O=C1Nc2ccc(-c3ccc(Cl)cc3)cc2C(=O)N2CCN(C(=O)C(O)c3ccc(Cl)cc3)CC12 (stereo not shown) [Compound A38]" attribute_measured="remaining activity at 10 µM" test_result=35
molecule="CC(C)(C)[C@H](N)C(=O)N1CCN2C(=O)c3cc(-c4ccc(Cl)cc4F)ccc3NC(=O)C2C1 (stereo partly shown) [Compound A61]" attribute_measured="remaining activity at 10 µM" test_result=-11
molecule="CC(C)(C)CC(=O)N1CCN2C(=O)c3cc(-c4ccc(Cl)cc4F)ccc3NC(=O)C2C1 (stereo not shown) [Compound 10]" attribute_measured="remaining activity at 10 µM" test_result=1

---

- experimental.system: recombinant autotaxin (Homo sapiens)
- experimental.protocol: Autotaxin test (enzyme test), Amplex Red fluorescence with LPC substrate
- run.parameters: autotaxin inhibition (enzyme test)
pIC50: −log10 of the molar value.
pIC50: recorded values
attribute.measured: pIC50

compound="CC(C)(C)CC(=O)N1CCN2C(=O)c3cc(-c4ccc(Cl)c(Cl)c4)ccc3NC(=O)C2C1 (centres unmarked) [Compound A104]" attribute_measured=pIC50 test_result="6.00 to 7.00"
compound="CN1CCN(C(=O)CN2C(=O)[C@@H]3CN(C(=O)CC(C)(C)C)CCN3C(=O)c3cc(-c4ccc(Cl)cc4F)ccc32)CC1 [Compound A162]" attribute_measured=pIC50 test_result="< 6.00"
compound="CC(C)(C)CC(=O)N1CCN2C(=O)c3cc(-c4ccc(Cl)cc4F)ccc3N(CCC3CCNCC3)C(=O)[C@H]2C1 [Compound A157]" attribute_measured=pIC50 test_result="6.00 to 7.00"
compound="CC(C)[C@@H](O)C(=O)N1CCN2C(=O)c3cc(-c4ccc(Cl)cc4F)ccc3NC(=O)C2C1 (some centres unmarked) [Compound A77]" attribute_measured=pIC50 test_result="< 6.00"
compound="CC(C)(C)[C@H](N)C(=O)N1CCN2C(=O)c3cc(-c4ccc(Cl)cc4)ccc3NC(=O)C2C1 (some centres unmarked) [Compound A137]" attribute_measured=pIC50 test_result="< 6.00"
compound="O=C1Nc2ccc(-c3ccc(Cl)cc3)cc2C(=O)N2CCN(C(=O)C3CCCCC3)C[C@H]12 [Compound B17]" attribute_measured=pIC50 test_result="< 6.00"
compound="O=C1Nc2ccc(-c3ccc(Cl)cc3)cc2C(=O)N2CCN(C(=O)C3(c4ccccc4)CC3)CC12 (centres unmarked) [Compound A49]" attribute_measured=pIC50 test_result="< 6.00"
compound="CC(C)[C@H](O)C(=O)N1CCN2C(=O)c3cc(-c4ccc(Cl)cc4)ccc3NC(=O)C2C1 (some centres unmarked) [Compound A74]" attribute_measured=pIC50 test_result="< 6.00"
compound="CC(C)(C)CC(=O)N1CCN2C(=O)c3cc(-c4ccc(Cl)cc4F)ccc3NC(=O)[C@H]2C1 [Compound A100]" attribute_measured=pIC50 test_result="< 6.00"
compound="O=C1Nc2ccc(-c3ccc(Cl)cc3F)cc2C(=O)N2CCN(C(=O)[C@@H]3CCCN3C3CCNCC3)C[C@@H]12 [Compound A126]" attribute_measured=pIC50 test_result="< 6.00"
compound="O=C1Nc2ccc(-c3ccc(Cl)c(F)c3)cc2C(=O)N2CCN(C(=O)[C@@H]3CCCN3C3CCNCC3)C[C@H]12 [Compound A102]" attribute_measured=pIC50 test_result="6.00 to 7.00"
compound="CC(C)(C)CC(=O)N1CCN2C(=O)c3cc(-c4ccc(Cl)cc4F)ccc3NC(=O)[C@@H]2C1 [Compound A125]" attribute_measured=pIC50 test_result="< 6.00"
compound="O=C1Nc2ccc(-c3ccc(Cl)cc3)cc2C(=O)N2CCN(C(=O)c3ccccc3)CC12 (centres unmarked) [Compound B27]" attribute_measured=pIC50 test_result="< 6.00"
compound="O=C1Nc2ccc(-c3ccc(Cl)cc3)cc2C(=O)N2CCN(C(=O)[C@@H]3CCCCN3)CC12 (some centres unmarked) [Compound A21]" attribute_measured=pIC50 test_result="< 6.00"
